- Target entity: T1, biotinylated GITR (human, UniProt Q9Y5U5 26-161, limits assumed, biotinylated (sites not given))
- T1 construct: also called GITR-bio; Biotin-GITR
- T1 sequence: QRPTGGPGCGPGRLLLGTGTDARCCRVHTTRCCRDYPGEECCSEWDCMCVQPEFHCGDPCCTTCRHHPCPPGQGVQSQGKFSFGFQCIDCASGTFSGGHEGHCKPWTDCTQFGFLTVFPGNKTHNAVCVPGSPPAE
- Run description: BLI (Octet), biotin-GITR on streptavidin tips, antibody supernatant

- Binder: "germline variant antibody 11 (H1916Al2 / K1916A12) (antibody, V domains shown, IGHG1/IGKC expression vectors; measured from CHO culture supernatant; also called Antibody ID 11) VH: QVQLVQSGAEVKKPGASVKVSCKGSGYTFTDYAMHWVRQAPGQGLEWMGLIRTYSGGVSYNQKFRGRVTMTVDTSISTAYMELSRLRSDDTAVYYCAKSGTVRGFAYWGQGTLVTVSS VL: DIVMTQSPDSLAVSLGERATINCKSSQSLLNSSNQKNYLSWYQQKPGQPPKLLIYWASTRESGVPDRFSGSGSGTDFTLTISSVQAEDVAVYHCQNDYSFPYTFGQGTKLEIK"
  kon, M⁻¹ s⁻¹: 403000
- Binder: "germline variant antibody 25 (H1916C07 / K1916C07) (antibody, V domains shown, IGHG1/IGKC expression vectors; measured from CHO culture supernatant; also called Antibody ID 25) VH: QVQLVQSGAEVKKPGASVKVSCKASGYTFTEYAMYWVRQAPGQGLEWMGLIRTFSGGVSYNQKFRGRATMTVDTSISTAYMELSRLRSDDTAVYYCAKSGTVRGFAYWGQGTLVTVSS VL: DIVMTQSPDSLAVSLGERATINCKSSQSLLNSGNQKNYLTWYQQKPGQPPKMLIYWASTRESGVPDRFTGSGSGTDFTLTISSVQAEDVAVYYCQNDYSFPYTFGQGTKLEIK"
  kon, M⁻¹ s⁻¹: 374000
- Binder: "germline variant antibody 55 (H1916F10 / K1916F10) (antibody, V domains shown, IGHG1/IGKC expression vectors; measured from CHO culture supernatant; also called Antibody ID 55) VH: QVQLVQSGTEVKKPGASVKVSCKASGYTFTDYAMYWVRQAPGQGLEWIGLIRTYSGGVTYNQKFQGRVTMTVDTSISTAYMELSRLRSDDTAVYYCAKSGTVRGFAYWGQGTLVTVSS VL: DIVMTQSPDSLAVSLGERATINCKSSQSLLNSGNQKNYLSWYQQKPGQPPKLLIYWASTRESGVPDRFSGSGSGTDFTLTISSVQAEDVAVYHCQNDYSFPYTFGQGTKLEIK"
  kon, M⁻¹ s⁻¹: 435000
